Species on record: Rattus norvegicus
Test: DrugMatrix - Regimen: Daily Repeat
Assay type: toxicity, organism-based, Sprague-Dawley
Design: regimen Daily Repeat, gender Male, age 6-8 weeks
Conditions: in vivo, po, 0 mg/kg, 72 h, tissue Plasma, route oral GAVAGE, dose level Control, time 3 day, vehicle .5 % CMC
REPORTED_ENDPOINT: ALBUMIN
Lab note: write values as number then unit, every time.

// solved cases for ALBUMIN follow
MOLECULE	ALBUMIN
OCCN(CCO)c1nc(N2CCCCC2)c2nc(N(CCO)CCO)nc(N3CCCCC3)c2n1 [DIPYRIDAMOLE]	3.9 G/DL
CCOP(=S)(OCC)Oc1nc(Cl)c(Cl)cc1Cl [CHLORPYRIFOS]	4.08 G/DL
N=C(N)NCCN1CCCCCCC1 [GUANETHIDINE]	3.9 G/DL

--- query ---
Find the recorded ALBUMIN belonging to CC1CC(OC(=O)C(O)c2ccccc2)CC(C)(C)C1 (centres undefined) [CYCLANDELATE] and report it.
3.9 G/DL
